What follows is a record of pIC50 for C-C chemokine receptor type 2 (Homo sapiens, UniProt P41597).
pIC50: −log10 of the molar value.

[
  {
    "smilesStr": "CS(=O)(=O)c1cccc2c1cc(C(=O)O)n2Cc1ccc(Cl)c(Cl)c1",
    "pIC50": 5.41
  },
  {
    "smilesStr": "Nc1cccc2c1cc(C(=O)O)n2Cc1ccc(Cl)c(Cl)c1",
    "pIC50": 6.64
  },
  {
    "smilesStr": "Nc1ccc2cc(C(=O)O)n(Cc3ccc(Cl)c(Cl)c3)c2c1",
    "pIC50": 4.90
  },
  {
    "smilesStr": "COc1ccc(Cn2c(C(=O)O)cc3cc(Cl)ccc32)cc1",
    "pIC50": 5.24
  },
  {
    "smilesStr": "O=C(O)c1cc2c(F)cccc2n1Cc1ccc(Cl)c(Cl)c1",
    "pIC50": 7.00
  },
  {
    "smilesStr": "O=C(O)c1cc2c([N+](=O)[O-])cccc2n1Cc1ccc(Cl)c(Cl)c1",
    "pIC50": 5.88
  },
  {
    "smilesStr": "O=C(O)c1cc2ccccc2n1Cc1ccc(Cl)c(Cl)c1",
    "pIC50": 6.64
  },
  {
    "smilesStr": "O=C(O)c1cc2cccc(Cl)c2n1Cc1ccc(Cl)c(Cl)c1",
    "pIC50": 6.47
  },
  {
    "smilesStr": "O=C(O)c1cc2cccc([N+](=O)[O-])c2n1Cc1ccc(Cl)c(Cl)c1",
    "pIC50": 4.96
  },
  {
    "smilesStr": "O=C(O)c1cc2c(C(F)(F)F)cccc2n1Cc1ccc(Cl)c(Cl)c1",
    "pIC50": 5.92
  },
  {
    "smilesStr": "O=C(O)c1cc2cccc(C(F)(F)F)c2n1Cc1ccc(Cl)c(Cl)c1",
    "pIC50": 5.90
  },
  {
    "smilesStr": "O=C(O)c1cc2cccc(F)c2n1Cc1ccc(Cl)c(Cl)c1",
    "pIC50": 6.90
  },
  {
    "smilesStr": "O=C(O)c1cc2ccc(C(F)(F)F)cc2n1Cc1ccc(Cl)c(Cl)c1",
    "pIC50": 5.98
  },
  {
    "smilesStr": "COc1ccc2cc(C(=O)O)n(Cc3ccc(Cl)c(Cl)c3)c2c1",
    "pIC50": 5.64
  },
  {
    "smilesStr": "O=C(NS(=O)(=O)c1ccccc1)c1cc2ccccc2n1Cc1ccc(Cl)c(Cl)c1",
    "pIC50": 5.32
  },
  {
    "smilesStr": "O=C(O)c1cc2cc(F)ccc2n1Cc1ccc(Cl)c(Cl)c1",
    "pIC50": 7.25
  },
  {
    "smilesStr": "O=C(O)c1c(Cl)c2ccccc2n1Cc1ccc(Cl)c(Cl)c1",
    "pIC50": 6.59
  }
]
